test: Volume of distribution at steady state in CD1 mouse at 1 mg/kg, iv; type: ADME, organism-based; details: in vivo, read-out: Vdss

# LINE NOTATION, Vd / L/kg
rows = [
    ("C=C(C)[C@@H]1CC[C@]2(NCCN3CCS(=O)(=O)CC3)CC[C@]3(C)[C@H](CC[C@@H]4[C@@]5(C)CC=C(c6ccc(C(=O)O)cc6)C(C)(C)[C@@H]5CC[C@]43C)[C@@H]12", 0.82),
]

---

assay: Cmax in beagle dog at 5 mg/kg, po administered via gavage as microsuspension along with high fat meal; assay type: ADME, organism-based, Canis lupus familiaris; parameters: dose 5 mg/kg, route oral; details: in vivo

# LINE NOTATION, OUTPUT UNIT, Cmax
measured = [
    ("C=C(C)[C@@H]1CC[C@]2(NCCN3CCS(=O)(=O)CC3)CC[C@]3(C)[C@H](CC[C@@H]4[C@@]5(C)CC=C(c6ccc(C(=O)O)cc6)C(C)(C)[C@@H]5CC[C@]43C)[C@@H]12", "µM", 10.2),
]
